Target: T1, human CD30L expressed on B16 cells (human, UniProt P32971 1-234)
T1 sequence (looked up): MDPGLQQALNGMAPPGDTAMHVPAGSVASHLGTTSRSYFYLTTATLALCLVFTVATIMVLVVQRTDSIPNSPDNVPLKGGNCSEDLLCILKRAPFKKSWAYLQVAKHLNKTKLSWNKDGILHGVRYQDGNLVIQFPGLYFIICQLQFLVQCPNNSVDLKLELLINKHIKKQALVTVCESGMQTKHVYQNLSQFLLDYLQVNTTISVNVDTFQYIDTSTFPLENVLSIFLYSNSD
Test: cell-based or functional assay
Measured Inhibition of IL-8 release in a dual cell assay (B16-huCD30L cells + K299 cells) IC50, listed per entry for reference.
Value Type: Inhibition of IL-8 release in a dual cell assay (B16-huCD30L cells + K299 cells) IC50 (nM)

[
  {
    "Binder": "anti-CD30L antibody clone 2 (antibody, V domains shown, also called clone 2 parental) VH: EVQLVESGGGLVQPGRSLRLSCAASGFNFDDYAMHWVRQAPGKGLEWVSGISWRSGNIGYAGSVKGRFTISRDNAKNSLYLQMNSLRPEDSALYYCAKDKGIGFNWNYEGFDYWGQGTLVTVSS VL: DIQMTQSPSSLSASVGDRVTITCRASQGISNHLAWFQQKPGKAPKSLIYAASSLQSGVPSKFSGSGSGTDFTLTISSLQPEDFATYYCQQYVTYPLTFGGGTKVEIK",
    "Value Observed": 0.81
  },
  {
    "Binder": "anti-CD30L antibody clone 2 germlined (antibody, V domains shown, also called germlined clone 2) VH: EVQLVESGGGLVQPGRSLRLSCAASGFNFDDYAMHWVRQAPGKGLEWVSGISWRSGNIGYADSVKGRFTISRDNAKNSLYLQMNSLRAEDTALYYCAKDKGIGFNWNYEGFDYWGQGTLVTVSS VL: DIQMTQSPSSLSASVGDRVTITCRASQGISNHLAWFQQKPGKAPKSLIYAASSLQSGVPSRFSGSGSGTDFTLTISSLQPEDFATYYCQQYVTYPLTFGGGTKVEIK",
    "Value Observed": 0.89
  },
  {
    "Binder": "anti-CD30L Reference 1 antibody (antibody, human IgG1, lambda, V domains shown) VH: QVQLQESGPGLVKPSETLSLTCTVSGGSISSYIWSWIRQPAGKGLEWIGRIYASGNTNYNPSLKSRVTISVDTSKNQFSLKLSSMTAADTAVYYCARDYRVAGTYYYYYGLDVWGQGTTVTVSS VL: QSALTQPASVSGSPGQSITISCTGTSSDVGVYDYVSWYQQHPGKAPKLMIYEVSNRPSGVSNRFSGSKSGNTASLTISGLQTEDEADYYCSSYTSRSTWVFGGGTKLTVLG",
    "Value Observed": 1.61
  },
  {
    "Binder": "anti-CD30L antibody clone 1 (antibody, V domains shown, also called clone 1 parental) VH: QVQLQESGPGLVKPSETLSLTCTVSGGSISGYYWSWIRQPPVKGLEWIGYIFYSGYTKYNPSLKSRVTISVDTSKNQFSLKLSSVTAADTAVYYCARDRWDFDYWGQGALVTVSS VL: AIQMTQSPSYLSASVGDRVTIACRASQGIRNNLGWYQQKPGKAPKLLIYAESSLQSGVPSRFSGSGSGTDFTLTISSLQPEDFATYYCLQDFNYPYTFGQGTKLEIK",
    "Value Observed": 1.43
  }
]
